Would you kindly list GI50 for each of these molecules?
Tested on: KM12
test-method-notes: NCI-60 SRB screen: colon cancer KM12
Format: cell-based, human
condition-set: Homo sapiens; KM12; five concentrations, 48 h, SRB; read-out: GI50
# unit: µM | format: bare number

Give the measured GI50 of C=C(C)[C@@H]1CC[C@]2(C(=O)NCCCN)CC[C@]3(C)[C@H](CC[C@@H]4[C@@]5(C)CCC(=O)C(C)(C)[C@@H]5CC[C@]43C)[C@@H]12 [Compound 10] .
17.3

Do the same for C=C(C)[C@@H]1CC[C@]2(C(=O)NCCNCCNCCN)CC[C@]3(C)[C@H](CC[C@@H]4[C@@]5(C)CC[C@H](O)C(C)(C)[C@@H]5CC[C@]43C)[C@@H]12 [Compound 6] please
6.81

Do the same for CC(=O)OCC12CCC(C(C)C(N)=O)C1C1CCC3C4(C)CCC(OC(C)=O)C(C)(C)C4CCC3(C)C1(C)CC2 (centres unmarked) [Compound 4] please
3.86

Do the same for C=C(C)[C@@H]1CC[C@]2(C(=O)NCCNCCNCCN)CC[C@]3(C)[C@H](CC[C@@H]4[C@@]5(C)CCC(=O)C(C)(C)[C@@H]5CC[C@]43C)[C@@H]12 [Compound 11] please
8.47

Do the same for C=C(C)[C@@H]1CC[C@]2(C(=O)OC)CC[C@]3(C)[C@H](CC[C@@H]4[C@@]5(C)CCC(=NOCCC(=NOCCC#N)NCCC#N)C(C)(C)[C@@H]5CC[C@]43C)[C@@H]12 [Compound 21] please
9.35
